- test summary: inhibitors of E-selectin induction by TNFa, primary screen, imaging, HUVEC, immunofluorescence, MLSMR starter and 10KST1 sets (AID 487);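 note: signal is fraction of cell area covered by stained E-selectin grains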
- conditions used: HUVEC TNFalpha-induced E-selectin immunofluorescence imaging, at 2 µM; stronger effect = higher value
The source made the active and inactive calls.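 Rule for the calls: active = visually confirmed hit in the image check and inhibition above 20%; inconclusive = visually confirmed hit but inhibition not above 20%; inactive = no visual hit in the image check.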
readout name: inhibition

The cases that follow already have their inhibition on record.
>>> df
                                compound  readout_name     reported_value
0  Brc1ccc2[nH]c3nc(SCCN4CCOCC4)nnc3c2c1    inhibition  -31.6% (inactive)
1        O=C(CCCc1cccs1)Nc1nc2c(s1)CCCC2    inhibition   -164% (inactive)
2         CCc1nnc(SCC(=O)NC2CCCCC2)nc1CC    inhibition  -62.4% (inactive)

// for each compound below, give its inhibition
1. CCOC(=O)c1ccc(Oc2cc(C)nc(SC)n2)cc1
2. CCc1nnc(NC(=O)COC(=O)CN2C(=O)c3ccccc3C2=O)s1
3. CC1NC(=O)NC1CCCCCC(=O)NCCc1ccccc1 (configuration not stated)
4. O=C(CCc1nc2ccccc2[nH]1)Nc1ccc2c(c1)OCO2

a:
["-192% (inactive)", "4.5% (inactive)", "-86.2% (inactive)", "-68.2% (inactive)"]

// for each compound below, give its inhibition
1. CCC(=O)Nc1nc2ccccc2n1CCN(C)C
2. Cc1cc(C)nc(Sc2ccc3nnc(C(F)(F)C(F)(F)C(F)(F)F)n3n2)n1

a:
1: -371% (inactive); 2: 4.1% (inactive)

// for each compound below, give its inhibition
1. COc1ccc(OCC(=O)N2CCN(C(=O)COc3ccc(Br)cc3)CC2)cc1
2. COc1ccc(S(=O)(=O)Nc2ccc3c(c2)OCO3)cc1Cl
3. COc1ccc(C)cc1-n1nnnc1SCC(=O)Nc1cc(C)on1

a:
["-13.6% (inactive)", "-9.8% (inactive)", "-330% (inactive)"]

----------
- test summary: inhibitors of E-selectin induction by TNFa, primary screen, imaging, HUVEC, immunofluorescence, MLSMR starter and 10KST1 sets (AID 487);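 note: signal is fraction of cell area covered by stained E-selectin grains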
- conditions used: HUVEC TNFalpha-induced E-selectin immunofluorescence imaging, at 2 µM; stronger effect = higher value
Field: class. Source value: inhibition. Ranges: lo: < -70%; mid: ≥ -70% and < -30%; hi: ≥ -30%

Solved entries:
>>> df
                                   compound  class
0  O=C1CC(NCc2ccncc2)C(=O)N1c1ccc(Cl)cc1 (stereo unspecified)     hi
1                       OC1C[N+]2(CCCCC2)C1     hi
2   CCOC(=O)CNC(=O)CNC(=O)c1ccc(OCC(C)C)cc1     hi

q: Band for the recorded inhibition of CCOC(=O)c1c(C)[nH]c(C(=O)COC(=O)c2ccc(F)c(S(=O)(=O)N3CCOCC3)c2)c1C ?
a: hi

----------
- test summary: DUSP6 inhibitors restoring Erk phosphorylation by chemical complementation, primary imaging in DUSP6-transfected HeLa (AID 609)
- conditions used: HeLa MKP-3 transfected, phospho-Erk imaging KS statistic; measured here: nuclear pErk red intensity z-score; at 10 µM; stronger effect = higher value; cells stimulated with TPA for 15 min
readout name: z-score
Numbers only.

>>> print(df.to_string())
                        molecule  readout_name  reported_value
0  O=C(Nc1ccccn1)c1ccc(=O)[nH]n1       z-score          -0.248

// for each molecule below, give its z-score
1. Cn1c(Cn2cnc(Cl)c2Cl)nc2ccccc21
2. Cc1nc(=O)c(-c2ccccc2)c(C)n1-c1ccc(S(N)(=O)=O)cc1
3. CC(=O)C1=C(O)C(=O)N(c2ccc(S(N)(=O)=O)cc2)C1c1ccccc1F (stereo unspecified)

a:
0.561
1.29
0.715

// for each molecule below, give its z-score
1. CCN1CCc2c(C#N)c(NCc3ccccc3)nc(N(CC)CC)c2C1
2. COc1ccc(OC)c(NS(=O)(=O)c2ccc(N3CCCC3=O)cc2)c1
3. Clc1ccc(COc2ccccn2)c(Cl)c1
4. Cc1cccc(-c2nnc3n2N=C(c2ccccc2)CS3)c1
5. Cc1ccc(-n2ncc3c(NCCCOC(C)C)ncnc32)c(C)c1
6. CCCCc1nc(N2CCOCC2)c(C#N)c2c1COC(C)(C)C2
7. Cn1c(=O)c2c(nc(NCc3ccco3)n2CCc2ccccc2)n(C)c1=O

a:
1: 0.375; 2: -0.414; 3: -1.17; 4: 1.32; 5: -0.077; 6: -0.238; 7: 1.19
